Tested on: CFPAC-1 (Pancreatic Carcinoma);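 note: after 72 h of two-drug dosing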
Experiment: Bliss excess, mean over the matrix (fraction); higher = more synergy
Quantity Measured: Bliss excess

Ask: Return reported Bliss excess; argument: CN(CCO)CC[C@H](CSc1ccccc1)Nc1ccc(S(=O)(=O)NC(=O)c2ccc(N3CCC([C@@H](O)c4ccccc4-c4ccc(Cl)cc4)CC3)cc2)cc1S(=O)(=O)C(F)(F)F [AZD4320] + C[C@@H](Nc1cc(F)cc(F)c1)c1cc(C(=O)N(C)C)cc2c(=O)cc(N3CCOCC3)oc12 [AZD8186] (first compound max 1 µM, 7x7, partner max 3 µM)
Reply: 0.0585

Ask: Can you check Cn1cnc2c(F)c(Nc3ccc(Br)cc3Cl)c(C(=O)NOCCO)cc21 [Selumetinib] + CC(C)n1c(=O)n(C)c2cnc3cc(F)c(-c4ccc(OCCCN5CCCCC5)nc4)cc3c21 [AZD1390] (first compound max 10 µM, 7x7, partner max 0.3 µM) next?
Reply: -0.0627

Ask: Can you check C[C@@H](c1ccc2nccn2c1)n1nnc2ncc(-c3cnn(C)c3)nc21 [Savolitinib] + Cc1c2c(nn1C)CSCc1cc(n(C)n1)CSc1cc(c3ccccc3c1)OCCCc1c(C(=O)O)n(C)c3c-2c(Cl)ccc13 [AZD5991] (first compound max 1 µM, 7x7, partner max 1 µM) next?
Reply: -0.0875

Ask: Can you check COc1cccc(OCCCN)c1-c1cc(Nc2cnc(C#N)cn2)n[nH]1 [Prexasertib] + CCc1c2c(nc3ccc(O)cc13)-c1cc3c(c(=O)n1C2)COC(=O)[C@]3(O)CC [SN-38] (first compound max 1 µM, 7x7, partner max 0.3 µM) next?
Reply: -0.107

Ask: Can you check CC1(C)CCC(CN2CCN(c3ccc(C(=O)NS(=O)(=O)c4ccc(NCC5CCOCC5)c([N+](=O)[O-])c4)c(Oc4cnc5[nH]ccc5c4)c3)CC2)=C(c2ccc(Cl)cc2)C1 [Venetoclax] + Cn1cnc2c(F)c(Nc3ccc(Br)cc3Cl)c(C(=O)NOCCO)cc21 [Selumetinib] (first compound max 1 µM, 7x7, partner max 3 µM) next?
Reply: -0.0142
